Assay: Acute toxicity, oral administration to mice
Format: in vivo, mouse (ddY
Conditions: mouse, in vivo, ddY male mice, 7 week old
Reported property: LD50

// LD50 value for O=C1CCCN1S(=O)(=O)c1ccc(Cl)cc1 [Synthetic Example 3,4] : ≥ 2000 mg/kg
